target: UniProt:P25779; experiment: biochemical
Sequence (P25779 123-337 limits assumed): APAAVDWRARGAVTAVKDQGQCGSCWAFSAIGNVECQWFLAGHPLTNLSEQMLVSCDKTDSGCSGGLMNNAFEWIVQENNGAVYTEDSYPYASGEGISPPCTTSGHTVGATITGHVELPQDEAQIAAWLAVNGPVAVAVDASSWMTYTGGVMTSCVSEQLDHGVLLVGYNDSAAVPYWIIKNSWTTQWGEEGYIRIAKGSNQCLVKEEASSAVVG
outcome.measure: kinact/KI (M⁻¹ s⁻¹)

# annotated cases, reported kinact/KI shown
molecule: Cc1ccc(C[C@H](NC(=O)c2ccccn2)C(=O)N[C@H](/C=C/S(=O)(=O)c2ccccc2)CCc2ccccc2)cc1.O=C(O)C(F)(F)F [Compound 3]
test.value: 16000
--
molecule: CN1CCN(C(=O)N[C@@H](Cc2ccccc2)C(=O)N[C@H](/C=C/S(=O)(=O)c2ccccc2)CCc2ccccc2)CC1 [Compound 1, reference compound]
test.value: 118000
--
molecule: Cc1ccc(C[C@H](NC(=O)c2ccncc2)C(=O)N[C@H](/C=C/S(=O)(=O)c2ccccc2)CCc2ccccc2)cc1 [Compound 4]
test.value: 67300

[a] C#CCN1CCN(C(=O)N[C@@H](Cc2ccccc2)C(=O)N[C@H](/C=C/S(=O)(=O)c2ccccc2)CCc2ccccc2)CC1 [Compound 9]
[b] O=C(N[C@@H](Cc1ccccc1)C(=O)N[C@H](/C=C/S(=O)(=O)c1ccccc1)CCc1ccccc1)c1ccccn1 [Compound 2]
Ask: Which entry has a larger number for kinact/KI, a or b ? Please indicate the selected item by its label.
Reply: b
(b: 120000 M⁻¹ s⁻¹, a: 81500 M⁻¹ s⁻¹)

====

EC90 values for the compounds below.
test system: T. cruzi parasites in C2C12 host cells; assay: High-content imaging-based screening (HCS) assay; type: cell-based; settings: Trypanosoma cruzi; reduces parasite load in C2C12 cells by 90% relative to untreated controls; read-out: T. cruzi growth inhibition HCS EC90

# annotated cases, reported EC90 shown
compound.smiles: Cc1ccc(C[C@H](NC(=O)c2ccccn2)C(=O)N[C@@H](CCc2ccccc2)CCS(=O)(=O)c2ccccc2)cc1
EC90: > 10 µM

compound.smiles: CNC(=O)[C@H](Cc1ccc(C)cc1)NC(=O)c1ccncc1
EC90: > 10 µM

EC90 for "CN1CCN(C(=O)N[C@@H](Cc2ccccc2)C(=O)N[C@@H](CCc2ccccc2)CCS(=O)(=O)c2ccccc2)CC1" is > 10 µM
